Item-by-item account of log10 of IC50
TARGET: P2Y purinoceptor 1 (Meleagris gallopavo)
Sequence (P49652 whole entry): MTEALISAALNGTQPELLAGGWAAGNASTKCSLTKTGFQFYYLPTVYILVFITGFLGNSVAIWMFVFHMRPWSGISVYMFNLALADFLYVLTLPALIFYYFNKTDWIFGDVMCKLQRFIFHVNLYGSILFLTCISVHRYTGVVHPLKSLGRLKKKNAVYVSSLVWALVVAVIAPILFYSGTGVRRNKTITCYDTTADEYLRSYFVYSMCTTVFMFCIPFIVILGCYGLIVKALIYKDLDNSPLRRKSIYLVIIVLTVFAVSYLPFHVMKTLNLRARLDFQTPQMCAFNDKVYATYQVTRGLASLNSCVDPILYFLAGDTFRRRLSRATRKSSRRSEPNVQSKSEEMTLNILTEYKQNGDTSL
RUN_DESCRIPTION: Antagonist activity at P2Y1 receptor measured as capacity to inhibit 50% of phospholipase C stimulation elicited by 10 nM 2-MeSATP
Transform log10 | Measure IC50 | Unit µM

Worked examples follow.
MOLECULE	log10 of IC50
C[n+]1cnc2c(ncn2[C@H]2C[C@H](OP(=O)(O)O)[C@@H](COP(=O)(O)O)O2)c1N	1.74
CC(C)(COP(=O)(O)OP(=O)(O)OC[C@H]1O[C@@H](n2cnc3c(N)ncnc32)[C@H](OP(=O)(O)O)[C@@H]1O)C(O)C(=O)NCCC(=O)NCCS (stereo not given in full)	1.86
CO[C@@H]1[C@H](OP(=O)(O)O)[C@@H](COP(=O)(O)O)O[C@H]1n1cnc2c(N)ncnc21	1.09
Nc1ncnc2c1ncn2[C@H]1C[C@H](OP(O)(O)=S)[C@@H](COP(O)(O)=S)O1	1.94

Now let's try a different one.
Please respond with reported log10 of IC50 (system P2Y purinoceptor 1 (Meleagris gallopavo)) for CNc1ncnc2c1ncn2C1OC(COP(=O)(O)O)CC1OP(=O)(O)O (stereo not given) .
-0.49

Origin of the recorded values: ChEMBL document CHEMBL1131110
